- System: SF-539
- PROTOCOL: NCI tumour cell line growth inhibition, 48 h
Active and inactive are the calls of the source. No stated cut-off is given here; in the data, active = GI50 up to about 1.1 µM and inactive = higher. Non-standard residues stand in square brackets, D forms with d. Residues, ends and D or L forms follow the SMILES beside them. ξ: configuration not given here. *: point of attachment. NMeF = CN[C@@H](Cc1ccccc1)C(=O)O; NMeN = CN[C@@H](CC(N)=O)C(=O)O; NMeV = CN[C@H](C(=O)O)C(C)C; ξNMeV = CNC(C(=O)O)C(C)C; Boc = CC(C)(C)OC(=O)*; ξNMeA = CNC(C)C(=O)O; ξV = CC(C)C(N)C(=O)O
Possible outcomes: y (active), n (inactive)

>>> class_label("CC(=O)OC/C=C/[C@H](O[Si](C)(C)C(C)(C)C)[C@@H](O)/C=C/COC(C)=O")
"n"
>>> class_label("OC1CCCCCCCCCCC1SCCCCl (stereo not given)")
"n"
>>> class_label("N=C(N)c1ccc(/N=N\\c2c(O)ccc3cc4c(/N=N\\c5ccc(C(=N)N)cc5)c(O)ccc4cc23)cc1")
"n"
>>> class_label("NS(=O)(=O)c1ccc(Nc2c3ccccc3nc3c(C(=O)NC(CO)(CO)CO)cccc23)cc1")
"y"
>>> class_label("NC(=O)/C=C/C(=O)O")
"n"
>>> class_label("CC(=O)CN(Cc1cc(C)c2c(c1)c1ccccc1n2Cc1ccccc1)S(=O)(=O)c1ccc(C)cc1")
"n"
>>> class_label("CC1=NN(C(=O)Cc2ccccc2)C(=O)/C1=C/c1c(O)ccc2ccccc12")
"n"
>>> class_label("CN(C)CCCNC(=O)N/N=C/c1ccccc1")
"n"
>>> class_label("CC(=O)n1c2c(c(=O)n1-c1ccccc1)[S+]([O-])CCC2 (stereo not given)")
"n"
>>> class_label("CC1=NOC2(C1)C(=O)Nc1ccccc12 (stereo not given)")
"n"
>>> class_label("O=C(O)C1C2C=CC(O2)C1C(=O)NCc1ccccn1 (stereo not given)")
"n"
>>> class_label("c1ccc2c(c1)CC1COc3ccccc3C1O2 (stereo not given)")
"n"
>>> class_label("C/C(=N\\NC(=O)CC(=O)N(C(=O)c1ccc(Cl)cc1)c1ccc(C)cc1)c1ccccc1O")
"n"
>>> class_label("N#CC1=C(O)NC(O)=C(C#N)C1c1c(Cl)cccc1Cl")
"n"
>>> class_label("CC1C[C@]2(C)C(=O)N(c3ccccc3)C(=N)[C@@H]2N(C)c2ccccc21 (stereo not given in full)")
"n"
>>> class_label("Cn1[nH]nn/c1=N\\N=C\\c1ccccc1")
"n"
>>> class_label("N#Cc1c(O)c(C=O)c(=O)n2c1[nH]c1ccccc12")
"n"
>>> class_label("CN(C)Cc1[nH]c2ccccc2c1C(=O)c1ccccc1")
"n"
>>> class_label("COC(=O)c1[nH]c(=S)[nH]c(=O)c1-c1ccc(Cl)cc1")
"n"
>>> class_label("CCCCCCC1OC23OC1CCC2C(O)CCC3O (stereo not given)")
"n"
>>> class_label("CC(=O)OCCOCNC(=S)N/N=C(\\C)c1cccs1")
"n"
>>> class_label("CC1=NN(C(=O)Cc2ccccc2)C(=O)/C1=C\\c1cccc(O)c1")
"n"
>>> class_label("CC(C)(C)OC(=O)N1C(OP(=O)(Oc2ccccc2)Oc2ccccc2)=CSc2ccccc21")
"n"
>>> class_label("O=C(Nc1ccccc1)OCCN=C1c2ccccc2C(Br)C(Br)c2ccccc21 (stereo not given)")
"n"
>>> class_label("CN(CCCN1CCCC1)CCCN(C)C(=O)Cc1ccc(Cl)c(Cl)c1")
"n"
>>> class_label("O=S(=O)(Sc1ccc(Cl)cc1)c1ccc(Cl)cc1")
"n"
>>> class_label("COC(=O)c1ccc([N+](=O)[O-])c(O)c1")
"n"
>>> class_label("CCOC(=O)c1cn(-c2ccccc2)c(=S)n2c1nc1ccccc12")
"n"
>>> class_label("CCOC(=O)C1(C/C=C/CBr)CCc2ccccc2C1=O (stereo not given)")
"n"
>>> class_label("COC(=O)C1(O)C(c2ccccc2)NC2(C)CCCC21 (stereo not given)")
"n"
>>> class_label("CN(C)c1ccc(C2CC(=O)CC(c3ccc(N(C)C)cc3)C23C(=O)NC(=O)NC3=O)cc1 (stereo not given)")
"n"
>>> class_label("COC(=O)C(C)N(C)C(=O)[C@H](CC(N)=O)N(C)C(=O)[C@@H]1CCCN1C(=O)[C@H](C(C)C)N(C)C(=O)C(C(C)C)N(C)C(=O)[C@H](Cc1ccccc1)N(C)C(=O)C(NC(=O)OC(C)(C)C)C(C)C (stereo not given in full) (Boc-[ξV][NMeF][ξNMeV][NMeV]P[NMeN][ξNMeA]-OMe)")
"n"
>>> class_label("Cc1ccc(NC(=O)/C(=N/N(C)C)C(C2OC(=O)c3ccccc32)[N+](=O)[O-])cc1 (stereo not given)")
"n"
>>> class_label("O=C(Cc1ccccc1)N/N=C(/CCN1CCCC1)CC(c1ccccc1)c1c(O)c2ccccc2oc1=O (stereo not given)")
"n"
>>> class_label("Cc1cc2oc(C)c(S(=O)(=O)NC(=O)Nc3ccc(Cl)cc3)c(=O)c2c(=O)o1")
"n"

* * *

- Tested on: A498
- PROTOCOL: NCI tumour cell line growth inhibition, 48 h
Active and inactive are the calls of the source. Cut-off read from the data, not from the text of the source: active = GI50 up to about 1.1 µM and inactive = higher.
VALUE KIND: GI50

>>> assay_value("O/N=C1\\CSc2ccccc2C1")
"51.6 µM (inactive)"
>>> assay_value("CC1C[C@]2(C)C(=O)N(c3ccccc3)C(=N)[C@@H]2N(C)c2ccccc21 (stereo partly drawn)")
"> 100 µM (inactive)"
>>> assay_value("Cc1c(Cl)c(=O)oc2cc(OCC(=O)c3ccccc3)ccc12")
"> 100 µM (inactive)"
>>> assay_value("Cc1cc(Cl)ccc1N1C(=O)C(=O)C(c2nc3ccccc3s2)C(=O)C1=O")
"> 100 µM (inactive)"
>>> assay_value("CCOC(=O)/C(C(C)=O)=C(\\OC(C)=O)c1ccncc1C(=O)O")
"> 100 µM (inactive)"
>>> assay_value("COc1cccc(/C=N/NC(N)=O)c1O")
"> 100 µM (inactive)"
>>> assay_value("COc1c2c(c3c(c1OC)c(=O)c1ccccc1n3C)OCO2")
"> 100 µM (inactive)"
>>> assay_value("O=[N+]([O-])c1cccc2nccc(NCC(O)CO)c12 (stereo not drawn)")
"7.66 µM (inactive)"
>>> assay_value("CC(=O)Nc1ccc(/C=N\\N2C(=O)c3ccccc3C2=O)cc1")
"> 100 µM (inactive)"
>>> assay_value("BrC1=CC=C2NCCCCCC/N=C3\\C=CC(Br)=CC=C3NCCCCCC/N=C\\2C=C1")
"> 25.5 µM (inactive)"
>>> assay_value("Nc1ncnc2nc(N3CCN(CCO)CC3)[nH]c12")
"> 100 µM (inactive)"
>>> assay_value("CSc1ncnc2c1ncn2CCC#N")
"> 100 µM (inactive)"
>>> assay_value("CC(C)CNc1nc(N)nc(O)c1NC=O")
"> 100 µM (inactive)"

* * *

- Tested on: SF-295
- PROTOCOL: NCI tumour cell line growth inhibition, 48 h
Activity calls are given as the source filed them. No stated cut-off is given here; in the data, active = GI50 up to about 1.1 µM and inactive = higher.
Listing of recorded GI50 by entry.
VALUE KIND: GI50

>>> assay_value("O/N=C/C1c2ccccc2-c2ccccc21")
"22.5 µM (inactive)"
>>> assay_value("Nc1ccccc1S(=O)(=O)c1ccccc1")
"> 100 µM (inactive)"
>>> assay_value("CC(C)(C)C1=C(Br)C(Br)(C(C)(C)C)OP1(=O)c1ccccc1 (stereo not drawn)")
"> 100 µM (inactive)"

* * *

- System: HCT-15
VALUE KIND: GI50 (µM)

>>> assay_value("O=S(O)CCCCSSCCCCSSCCCCS(=O)O")
42.7
>>> assay_value("Cc1nc2ccccc2c(=O)n1/N=C(\\N=N\\c1ccccc1)c1ccccc1Cl")
48.1

* * *

- Test system: NCI-H460
- PROTOCOL: NCI tumour cell line growth inhibition, 48 h
The source made the active and inactive calls. Cut-off read from the data, not from the text of the source: active = GI50 up to about 1.1 µM and inactive = higher.
Labels: true (active), false (inactive)

>>> class_label("COc1ccc(N2C(=O)/C(=C\\c3cc(OC)c(OC)c(OC)c3)S(=O)(=O)C2c2ccccc2)cc1 (stereo not given)")
"false"
>>> class_label("O=C1CCC2c3ccccc3NCN12 (stereo not given)")
"false"
>>> class_label("CC(=O)Oc1ccc2c(c1)oc1c3ccc(OC(C)=O)cc3n(C)c(=O)c21")
"false"
>>> class_label("Cc1cc2c(c3oc(C(O)(CO)C4CO4)cc(=O)c13)C(=O)c1c(O)cccc1C2=O (stereo not given)")
"true"
>>> class_label("Oc1c(Br)ccc2cccnc12")
"false"

* * *

- System: NCI/ADR-RES
- PROTOCOL: NCI tumour cell line growth inhibition, 48 h
Calls of active or inactive are those of the source. Rule as the data show it: active = GI50 up to about 1.1 µM and inactive = higher.
Collected GI50 values appear next to each entry.
VALUE KIND: GI50

>>> assay_value("O=C(c1cc(Br)ccc1O)c1cc(Br)ccc1O")
"18.8 µM (inactive)"
>>> assay_value("OC(O)(C(F)(F)F)C(F)(F)F")
"> 100 µM (inactive)"
>>> assay_value("CN(C)CCCOc1nc2c(c(=O)n(C)c(=O)n2C)n1C.SC1=NC=NC2=NC=NC12")
"4.32 µM (inactive)"
